# Test system: HeLa H2B-GFP cells
# protocol.summary: Live cell imaging of mitotic duration and cell fate
# Assay type: cell-based, human
# stated.conditions: Fig 6C; compounds 8 h after release; 12 μM proTAME, 300 nM nocodazole, 150 nM taxol, 100 nM hesperadin
readout: Median mitotic duration
Field: value (include unit after the number)

| compound | Median mitotic duration |
| --- | --- |
| COC(=O)Nc1nc2ccc(C(=O)c3cccs3)cc2[nH]1 [Nocodazole, reference compound] | 2094 min |
| CC(=O)O[C@H]1C(=O)[C@@]2(C)[C@H]([C@H](OC(=O)c3ccccc3)[C@]3(O)C[C@H](OC(=O)[C@H](O)[C@@H](NC(=O)c4ccccc4)c4ccccc4)C(C)=C1C3(C)C)[C@]1(OC(C)=O)CO[C@@H]1C[C@@H]2O [Taxol, reference compound] | 2070 min |
| CCS(=O)(=O)Nc1ccc2c(c1)/C(=C(/Nc1ccc(CN3CCCCC3)cc1)c1ccccc1)C(=O)N2 [Hesperadin, reference compound] | 96 min |

Request: Given COC(=O)[C@H](CCCN/C(=N\C(=O)OCOC(=O)Cc1ccccc1)NC(=O)OCOC(=O)Cc1ccccc1)NS(=O)(=O)c1ccc(C)cc1 [proTAME] , state its recorded Median mitotic duration.
Result: 1272 min

###

# System: HeLa H2B-GFP cells
# protocol.summary: Live cell imaging of mitotic duration and cell fate
# Assay type: cell-based, human
# stated.conditions: Fig 6C; compounds 8 h after release; 12 μM proTAME, 300 nM nocodazole, 150 nM taxol, 100 nM hesperadin
readout: Average mitotic duration
Field: value (include unit after the number)

| compound | system.under.test | Average mitotic duration |
| --- | --- | --- |
| COC(=O)[C@H](CCCN/C(=N\C(=O)OCOC(=O)Cc1ccccc1)NC(=O)OCOC(=O)Cc1ccccc1)NS(=O)(=O)c1ccc(C)cc1 [proTAME] | HeLa H2B-GFP cells | 1329.3 min |
| COC(=O)Nc1nc2ccc(C(=O)c3cccs3)cc2[nH]1 [Nocodazole, reference compound] | HeLa H2B-GFP cells | 1851.8 min |
| CCS(=O)(=O)Nc1ccc2c(c1)/C(=C(/Nc1ccc(CN3CCCCC3)cc1)c1ccccc1)C(=O)N2 [Hesperadin, reference compound] | HeLa H2B-GFP cells | 98.7 min |

Consider the additional compound presented here.
Request: Given CC(=O)O[C@H]1C(=O)[C@@]2(C)[C@H]([C@H](OC(=O)c3ccccc3)[C@]3(O)C[C@H](OC(=O)[C@H](O)[C@@H](NC(=O)c4ccccc4)c4ccccc4)C(C)=C1C3(C)C)[C@]1(OC(C)=O)CO[C@@H]1C[C@@H]2O [Taxol, reference compound] , state its recorded Average mitotic duration.
Result: 1946.9 min
